Test: yeast lifespan-shortening chemical project counter-assay, dose-response inhibition of growth under permissive conditions (AID 850);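 also: growth read as optical density after one day of incubation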
Settings: Saccharomyces cerevisiae growth inhibition, permissive control; measured here: maximum growth inhibition; at 12.5 µM; stronger effect = higher value
// map inhibition onto a label; ranges low-valued: < 20%; mid-valued: ≥ 20% and < 30%; high-valued: ≥ 30%

INSERT INTO assay_data (molecule, discrete_label) VALUES
  ('CC1=CC(=O)C=C(C)C1=NOS(=O)(=O)c1ccccc1', 'high-valued'),
  ('O=c1oc2ccccc2cc1-c1cn2cccnc2n1', 'low-valued'),
  ('O=C(Nc1nc(-c2ccccn2)cs1)c1ccc(Br)s1', 'high-valued');

Task item: Dear colleague, I would appreciate it if you could identify the bin for CC1(C)Cc2c(C#N)c(N)sc(=S)c2CO1 and reply at your convenience.
Reply: mid-valued

Task item: Similarly, COc1ccccc1-c1nnc(NC(=O)C(C)SC2=NCCS2)s1 (centres undefined) ?
Reply: low-valued

Task item: Let us now turn to CCCn1c(C(C)NC(C)=O)nc2ccccc21 (centres undefined)
Reply: low-valued

Task item: Repeat for the following molecule: COC(=O)CSC1=NS(=O)(=O)c2ccccc21
Reply: mid-valued

Task item: Please give the result for N/C(=N\OC(=O)c1ccc(Cl)cc1Cl)c1ccccc1 too.
Reply: high-valued

Task item: Then this molecule: Cn1c(C(=O)N2CCC(C(=O)N3CCN(Cc4ccc5c(c4)OCO5)CC3)CC2)cc2sccc21
Reply: low-valued

###

Assay: yeast lifespan-shortening chemical project counter-assay, dose-response inhibition of growth under permissive conditions (AID 850);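 also: growth read as optical density after one day of incubation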
Settings: Saccharomyces cerevisiae growth inhibition, permissive control; measured here: maximum growth inhibition; at 12.5 µM; stronger effect = higher value
observation type: inhibition (%)
Please respond with the number in % and leave the unit unwritten.

INSERT INTO measurements (molecule, experimental_result) VALUES
  ('CCOC(=O)C1C(C)N=C2SCC(=O)N2C1c1cccc(Br)c1 (stereo not drawn)', 12.2),
  ('CC1=C/C(=N\OS(=O)(=O)c2ccccc2)C(C)=CC1=O', 100),
  ('Cc1nc2ccccc2c2c1C(=O)N(C)C2=O', 20.3),
  ('CCCCSc1nc(C)c(C(C)=O)cc1C#N', 3.31),
  ('CC(C)(C)c1cc(NCCCn2ccnc2)n2ncc(-c3ccc(Cl)cc3)c2n1', 1.41),
  ('O=S(=O)(Cc1ccccc1)NCc1cccnc1', 28.2);

Task item: Consider the molecule shown here: O=C(Oc1csc(=S)n1C(=O)c1ccccc1)c1ccccc1 What is its recorded inhibition?
Reply: 11.4

Task item: Now this one: O=[N+]([O-])c1ccc(O)c2ncccc12
Reply: 99.4

###

Test system: Saccharomyces cerevisiae growth inhibition, permissive control
Experiment: yeast lifespan-shortening chemical project counter-assay, dose-response inhibition of growth under permissive conditions (AID 850);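 also: growth read as optical density after one day of incubation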
The source made the active and inactive calls. How the calls were made is not given here.
Assign a class; possible classes are active, inactive

Known results for compounds:
INSERT INTO measurements (smiles_structure, study_system, discrete_label) VALUES
  ('Oc1ccc(/C=C/c2nc(-c3ccccc3O)n(-c3ccccc3)n2)cc1', 'Saccharomyces cerevisiae growth inhibition, permissive control', 'active'),
  ('O=[N+]([O-])c1cc(Cc2ccccc2)cc(C=Nc2ccc(N3CCOCC3)cc2)c1O', 'Saccharomyces cerevisiae growth inhibition, permissive control', 'active');

Task item: For c1ccc(Cc2nnc3sc(-c4ccco4)nn23)cc1 , which call appears in the assay record?
Reply: inactive

Task item: And for CCOC(=O)c1c(-c2ccc(-c3ccccc3)cc2)csc1NC(=O)CCN1CCOCC1 ?
Reply: active

Task item: // next record Cc1c(Cl)cccc1N=Cc1ccc([N+](=O)[O-])s1
Reply: inactive

Task item: What do you get for c1ccc(-c2nc(-n3ccnc3)nc(-n3ccnc3)n2)cc1 ?
Reply: inactive

Task item: Next: COc1cccc2sc(Nc3nc(-c4ccccn4)cs3)nc12
Reply: active

Task item: What do you have for O=C(c1ccccc1)c1ccc2nc(N3CCCCC3)c3nncn3c2c1 ?
Reply: inactive
